# Tested on: TXA2
# method: Inhibition of thromboxane-induced isometric contraction of rabbit aortic strips (TXA2 generated from washed human platelets)
# Type: cell-based, Kaninchen
# assay_conditions: Oryctolagus cuniculus, Platelet; Konzentration 3 x 10^-5 g/ml; thromboxane-induced vessel contraction; read-out: Hemmung (%) (x̄ ± SEM)
Please mark Y if the recorded inhibition at 30 µg/mL is equal to or greater than 60%, and N if it falls below.

Completed entries (count: 3):
O=C(O)CCCSc1nc2ccccc2s1 [Beispiel 9]; Y
O=C(O)CCCCSc1nc2ccccc2s1 [Beispiel 25]; N
O=C(O)CCCSc1nc2cc(F)c(F)cc2s1 [Beispiel 11a]; Y

Now let's try a different one.
Does the compound O=C(O)CCCCSc1nc(Cl)c(Cl)s1 [Beispiel 23] have recorded inhibition at 30 µg/mL that is 60% or more?
N
